Test system: MiaPaCa2 pancreatic cancer cell line
Test: Cell viability assay (Cell Titer Glo), MiaPaCa2
Type: cell-based
Details: Homo sapiens, MIA PaCa-2; Table 7a; pancreatic cancer cell line, 72 hour incubation
Where a name gives a salt, the structure may show the parent alone.
measured_endpoint: IC50

CC(C)c1cnc2c(N[C@@H](C)c3ccccc3)cc(SC3CCNCC3)nn12
1000 to 5000 nM
CC(C)c1cnc2c(NCc3ccccc3)cc(S[C@@H]3CCCNC3)nn12 (single isomer, unassigned) [Compound 41, hydrochloride]
1000 to 5000 nM
CC(C)c1cnc2c(NCc3ccccc3)nc(SC3CCCNC3)cn12 (stereo not drawn) [Compound 26, formate salt]
> 5000 nM
CC(C)c1cnc2c(Nc3cccc(F)c3)cc(NC3CCNCC3)nn12 [Compound 45, hydrochloride]
< 1000 nM
CC(C)c1cnc2c(NCc3ccccc3C(F)(F)F)cc(SC3CCNCC3F)nn12 (stereo not drawn) [Compound 77, hydrochloride]
1000 to 5000 nM
c1ccc(CNc2cc(SC3CCCNC3)nn3c(C4CC4)cnc23)cc1 (stereo not drawn) [Compound 22, formate]
1000 to 5000 nM
COc1ccccc1CNc1cc(NC2CCNCC2)nn2c(C(C)C)cnc12 [Compound 40, hydrochloride]
1000 to 5000 nM
CC(C)c1cnc2c(NCc3ccccc3-n3cccn3)cc(SC3CCNCC3)nn12 [Compound 62, hydrochloride]
< 1000 nM
CC(C)c1cnc2c(NCc3ccccc3N(C)C)cc(SC3CCNCC3)nn12 [Compound 64, hydrochloride]
< 1000 nM

###

Target: CDK7/CycH/MAT1 (Homo sapiens, UniProt P50613)
Sequence (P50613 whole entry): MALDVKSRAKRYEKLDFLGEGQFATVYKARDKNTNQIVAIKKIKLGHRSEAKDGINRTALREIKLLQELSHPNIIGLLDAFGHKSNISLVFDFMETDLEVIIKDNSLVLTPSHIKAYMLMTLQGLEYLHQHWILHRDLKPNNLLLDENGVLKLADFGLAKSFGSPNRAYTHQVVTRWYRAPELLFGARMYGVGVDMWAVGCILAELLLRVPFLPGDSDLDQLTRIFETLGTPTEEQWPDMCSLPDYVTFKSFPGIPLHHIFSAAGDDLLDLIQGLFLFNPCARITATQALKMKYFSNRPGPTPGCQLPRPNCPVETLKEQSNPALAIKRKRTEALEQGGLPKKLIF
Sequence (P51946 whole entry partner): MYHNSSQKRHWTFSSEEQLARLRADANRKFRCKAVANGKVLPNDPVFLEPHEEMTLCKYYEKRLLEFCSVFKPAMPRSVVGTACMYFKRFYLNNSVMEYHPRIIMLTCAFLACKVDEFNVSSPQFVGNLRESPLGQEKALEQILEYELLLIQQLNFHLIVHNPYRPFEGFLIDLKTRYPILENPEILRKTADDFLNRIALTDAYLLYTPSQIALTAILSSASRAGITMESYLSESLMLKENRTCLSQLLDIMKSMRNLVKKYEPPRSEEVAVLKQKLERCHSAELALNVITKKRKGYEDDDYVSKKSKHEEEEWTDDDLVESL
Sequence (P51948 whole entry partner): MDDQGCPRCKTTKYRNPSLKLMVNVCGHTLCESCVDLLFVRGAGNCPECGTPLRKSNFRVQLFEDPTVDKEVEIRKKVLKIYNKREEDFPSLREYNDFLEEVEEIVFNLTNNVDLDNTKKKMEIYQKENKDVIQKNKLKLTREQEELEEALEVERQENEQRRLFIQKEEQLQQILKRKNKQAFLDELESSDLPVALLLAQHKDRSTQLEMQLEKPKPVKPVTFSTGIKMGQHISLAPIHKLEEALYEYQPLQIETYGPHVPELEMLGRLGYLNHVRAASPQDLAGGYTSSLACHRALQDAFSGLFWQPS
Test: Kinase Glo (ADP-Glo) biochemical assay, CDK7
Details: CDK7/CycH/MAT1 40 ng, ATP 1 μM, 60 minutes at RT, luminescence
Structures can show the parent of a compound that is named as a salt.
measured_endpoint: IC50

COc1ccccc1CNc1cc(NC2CCNCC2)nn2c(C(C)C)cnc12 [Compound 40, hydrochloride]
< 100 nM
CC(C)c1cnc2c(N[C@@H](C)c3ccccc3)cc(SC3CCCNC3)nn12 (stereo partly shown) [Compound 28, hydrochloride]
< 100 nM
CC(C)c1cnc2c(N[C@@H](C)c3ccccc3)cc(OC3CCNCC3)nn12 [Compound 27, hydrochloride]
100 to 1000 nM
CC(C)c1cnc2c(NCc3ccccc3-n3cccn3)cc(SC3CCNCC3)nn12 [Compound 62, hydrochloride]
< 100 nM
CN1CC[C@@H](Oc2cc(Nc3cccc(F)c3)c3ncc(C4CC4)n3n2)C1 [Compound 3]
100 to 1000 nM
COc1ccccc1CNc1cc(SC2CCNCC2(F)F)nn2c(C(C)C)cnc12 (stereo not shown) [Compound 75, hydrochloride]
100 to 1000 nM
CC(C)c1cnc2c(NCc3ccccc3N(C)C)cc(SC3CCNCC3)nn12 [Compound 64, hydrochloride]
< 100 nM
CC(C)c1cnc2c(Nc3cccc(F)c3)cc(OC3CCNCC3)nn12 [Compound 50, hydrochloride]
100 to 1000 nM
c1ccc(CNc2cc(OC3CCNCC3)nn3c(C4CC4)cnc23)cc1 [Compound 14]
100 to 1000 nM
CC(C)c1cnc2c(NCc3ccccc3-n3cccn3)cc(SC3CCCNC3)nn12 (stereo not shown) [Compound 63, hydrochloride]
< 100 nM
CC(C)c1cnc2c(NCc3ccccc3OC(F)(F)F)cc(OC3CCNCC3F)nn12 (stereo not shown) [Compound 69, hydrochloride]
100 to 1000 nM
CC(C)c1cnc2c(NCc3ccccc3OC(F)(F)F)cc(OC3CCNCC3)nn12 [Compound 43, hydrochloride]
< 100 nM
CC(C)c1cnc2c(NCc3ccccc3OC(F)(F)F)cc(OC[C@H]3CNCCO3)nn12 [Compound 47, hydrochloride]
100 to 1000 nM
CC(C)c1cnc2c(Nc3ccccc3OC(F)(F)F)cc(SC3CCCNC3)nn12 (stereo not shown) [Compound 60, hydrochloride]
100 to 1000 nM
CN1CCC[C@@H](Oc2cc(NCc3ccccc3)c3ncc(C4CC4)n3n2)C1 [Compound 9]
100 to 1000 nM
c1ccc(CNc2cc(O[C@@H]3CCCNC3)nn3c(C4CC4)cnc23)cc1 [Compound 13]
100 to 1000 nM

###

Test system: MiaPaCa2 pancreatic cancer cell line
Assay: Cell viability assay (Cell Titer Glo), MiaPaCa2
Assay type: cell-based
Conditions: Homo sapiens, MIA PaCa-2; Table 7a; pancreatic cancer cell line, 72 hour incubation
pIC50: −log10 of the molar value. Structures can show the parent of a compound that is named as a salt.
Recorded pIC50 by entry
measured_endpoint: pIC50

CC(C)c1cnc2c(Nc3cccc(F)c3)cc(SC3CCNCC3)nn12 [Compound 44, hydrochloride]
> 6.00
CC(C)c1cnc2c(N[C@@H](C)c3ccccc3)nc(SC3CCCNC3)cn12 (stereo partly drawn) [Compound 34, hydrochloride]
5.30 to 6.00
COc1ccccc1CNc1cc(SC2CCCNC2)nn2c(C(C)C)cnc12 (stereo not drawn) [Compound 36, hydrochloride]
5.30 to 6.00
CC(C)c1cnc2c(Nc3cccc(F)c3)cc(O[C@H]3CCCNC3)nn12 [Compound 39, hydrochloride]
5.30 to 6.00
CC(C)c1cnc2c(NCc3ccccc3OC(F)(F)F)cc(OC3CCNCC3F)nn12 (stereo not drawn) [Compound 70, hydrochloride]
5.30 to 6.00
COc1ccccc1CNc1cc(SC2CCNCC2F)nn2c(C(C)C)cnc12 (stereo not drawn) [Compound 73, hydrochloride]
5.30 to 6.00
CC(C)c1cnc2c(NCc3ccccc3OC(F)(F)F)cc(OC3CCNCC3)nn12 [Compound 43, hydrochloride]
5.30 to 6.00
COc1ccccc1CNc1nc(SC2CCNCC2)cn2c(C(C)C)cnc12 [Compound 51, formate]
5.30 to 6.00
CC(C)c1cnc2c(NCc3ccccc3OC(F)F)cc(SC3CCNCC3)nn12 [Compound 66, hydrochloride]
> 6.00
CC(C)c1cnc2c(NCc3ccccc3OC(F)(F)F)cc(NC[C@@H]3CNCCO3)nn12 [Compound 46, hydrochloride]
5.30 to 6.00
CC(C)c1cnc2c(N[C@@H](C)c3ccccc3)nc(SC3CCNCC3)cn12 [Compound 32, dihydrochloride]
5.30 to 6.00
CC(C)c1cnc2c(NCc3ccccc3OC(F)(F)F)cc(SC3CCCNC3)nn12 (stereo not drawn)
5.30 to 6.00
CC(C)c1cnc2c(NCc3ccc(F)cc3F)cc(SC3CCNCC3)nn12 [Compound 56, hydrochloride]
> 6.00
CC(C)c1cnc2c(NCc3ccccc3OC(F)(F)F)cc(NC[C@H]3CNCCO3)nn12 [Compound 48, hydrochloride]
5.30 to 6.00
COc1ccccc1CNc1cc(SC2CCNCC2)nn2c(C(C)C)cnc12 [Compound 35, hydrochloride]
> 6.00

###

Target: CDK7/CycH/MAT1 (Homo sapiens)
Assay: Kinase Glo (ADP-Glo) biochemical assay, CDK7
Conditions: CDK7/CycH/MAT1 40 ng, ATP 1 μM, 60 minutes at RT, luminescence
Where a name gives a salt, the structure may show the parent alone.
measured_endpoint: IC50

COc1ccccc1CNc1nc(SC2CCNCC2)cn2c(C(C)C)cnc12 [Compound 51, formate]
< 100 nM
c1ccc(CNc2cc(O[C@H]3CCNC3)nn3c(C4CC4)cnc23)cc1 [Compound 12]
100 to 1000 nM
CC(C)c1cnc2c(NCc3ccccc3C(F)(F)F)cc(SC3CCNCC3F)nn12 (stereo not shown) [Compound 77, hydrochloride]
< 100 nM
CC(C)c1cnc2c(NCc3cccc(OC(F)(F)F)c3)cc(SC3CCNCC3)nn12 [Compound 54, hydrochloride]
< 100 nM
FC(F)(F)c1cnc2c(NCc3ccccc3)cc(SC3CCNCC3)nn12 [Compound 78, hydrochloride]
< 100 nM
CC(C)c1cnc2c(Nc3cccc(C(F)(F)F)c3)cc(SC3CCCNC3)nn12 (stereo not shown) [Compound 57, hydrochloride]
100 to 1000 nM
c1ccc(CNc2cc(SC3CCCNC3)nn3c(C4CC4)cnc23)cc1 (stereo not shown) [Compound 22, formate]
< 100 nM
CC(C)c1cnc2c(NCc3ccccc3OC(F)(F)F)cc(SC3CCCNC3)nn12 (stereo not shown) [Compound 37]
< 100 nM
c1ccc(CNc2nc(NC3CCNCC3)cn3c(C4CC4)cnc23)cc1 [Compound 31, hydrochloride]
> 1000 nM
Fc1cccc(Nc2cc(O[C@H]3CCCNC3)nn3c(C4CC4)cnc23)c1 [Compound I-1]
< 100 nM
CC(C)c1cnc2c(Nc3c(F)cccc3F)cc(SC3CCCNC3)nn12 (stereo not shown) [Compound 59, hydrochloride]
< 100 nM
CC(C)c1cnc2c(NCc3ccccc3OC(F)(F)F)cc(NC[C@H]3CNCCO3)nn12 [Compound 48, hydrochloride]
< 100 nM
CN1CC[C@H](Oc2cc(Nc3cccc(F)c3)c3ncc(C4CC4)n3n2)C1 [Compound 5]
100 to 1000 nM
CC(C)c1cnc2c(NCc3ccccc3OC(F)(F)F)cc(NC[C@@H]3CNCCO3)nn12 [Compound 46, hydrochloride]
< 100 nM
CC(C)c1cnc2c(N[C@@H](C)c3ccccc3)cc(NC3CCNCC3)nn12 [Compound 29, hydrochloride]
100 to 1000 nM
c1ccc(CNc2nc(SC3CCNCC3)cn3c(C4CC4)cnc23)cc1 [Compound 21, formate salt]
100 to 1000 nM
